Origin of the recorded values: paper PMC12040169

Please respond with reported viability at 28.5 h, 10 µM for every item in the list.
Experiment: in vitro
Conditions: human, hela cells, % viability
Give a bare numeral; the unit % is implied.

Query: viability at 28.5 h, 10 µM; subject: O=C(O)CC1C(=O)NCCN1Cc1cccc(Oc2ccccc2)c1 (stereo not drawn) 91.4

Could you do the same for CCCN(CC1CC1)C(=O)CC1SC(NCC2CCCCC2)=NC1=O (stereo not drawn) , please? 104

Could you do the same for CCn1c(=O)[nH]c(=O)c2cnc(-c3ccc(OC)cc3)nc21 , please? 107

Could you do the same for CC1(C)COC(=O)N1C1CCN(C(=O)c2cncc(Br)c2)CC1 , please? 81.6

Could you do the same for COc1ccc(CCNC(=O)c2ccccc2NS(=O)(=O)c2cc(C(=O)O)ccc2OC)cc1 , please? 90.8

Could you do the same for COc1cccc(C(=O)NCCC(=O)N2CCN(C)CC2)c1 , please? 95.4

Could you do the same for COc1cc(NC(=O)c2cc([N+](=O)[O-])ccc2N2CCN(C)CC2)c2ncccc2c1 , please? 90

Could you do the same for CCCc1cc(=O)[nH]c(Nc2ccc(OCC)cc2)n1 , please? 112

Could you do the same for COc1cc2c(cc1OC)CN(C(=O)c1ccccn1)CC2 , please? 98.5

----------
Test: in vitro
Conditions: human, hela cells, % viability
Please respond with reported viability at 28.5 h, 10 µM for every item in the list.
Give a bare numeral; the unit % is implied.

Query: viability at 28.5 h, 10 µM; subject: COc1ccc(C(NC(=O)c2cc(C)oc2CN2CCCC2)c2ccccc2)cc1 (stereo not drawn) 118

Could you do the same for Cc1c(S(=O)(=O)N2CCC(N)C2)sc2ccc(Cl)cc12 (stereo not drawn) , please? 89.3

Could you do the same for CN1CCN(CC2(Cn3ccnc3-c3ccc(C(=O)O)cc3)CC2)CC1 , please? 75.1

Could you do the same for CN(C)CCCC(=O)N1CCN(C(=O)c2ccco2)CC1 , please? 111

Could you do the same for Cc1cc(NC(=O)CN2CC(C(=O)N3CCN(c4ccccc4)CC3)C2)no1 , please? 112

Could you do the same for O=C(O)CCSc1c[nH]c2ccccc12 , please? 94.5

Could you do the same for CC(C)N1C(=O)C2(CC(=O)N(CCCN3C(=O)c4ccccc4C3=O)C2=O)c2cc(F)ccc21 (stereo not drawn) , please? 99

Could you do the same for CCOC(=O)CC1SC(NS(=O)(=O)c2ccc(Br)cc2)=NC1=O (stereo not drawn) , please? 93.5

Could you do the same for CCN1C(=O)C2(CC(=O)N(Cc3ccc(OC)c(OC)c3)C2=O)c2cc(C)ccc21 (stereo not drawn) , please? 85.4

----------
Experiment: in vitro
Conditions: human, hela cells, % viability
reported.property: viability at 28.5 h, 10 µM (%)
Give a bare numeral; the unit % is implied.

Query: viability at 28.5 h, 10 µM; subject: COc1cccc(C2CC(=O)c3c(ccc4ccccc34)N2)c1OC (centres unmarked) 94.1

Could you do the same for CC(C)(C)c1ccc(-c2cnc3nc(N)ccc3c2)cc1 , please? 88.3

Could you do the same for COc1cccc(NC(=O)c2sc(N)nc2-c2ccccc2)c1 , please? 95.2

Could you do the same for Cc1ccc(-n2cc(-c3ccccc3)[nH]c2=O)cc1 , please? 101

Could you do the same for O=C(c1cc(F)cc(F)c1)N1CCC(n2cnc3cccnc32)CC1 , please? 88.6

Could you do the same for CCS(=O)(=O)CCNC(=O)c1cnc(N2CCCCC2)nc1C , please? 82.9

Could you do the same for Cc1cccc(CC(=O)N2CCC(Cc3ccccc3-c3ccccc3C)(C(N)=O)CC2)c1 , please? 93.4

Could you do the same for CCn1c(SCC(=O)Nc2ccccc2OC)nnc1-c1ccc(N)cc1 , please? 111

Could you do the same for CCN(CC)C(=O)CN1C(=O)N2CCN=C2c2ccccc21 , please? 94.9

Could you do the same for COC(=O)C(=O)N1CC[C@H]2NC(=O)N(Cc3ccccc3)C(=O)[C@H]21 , please? 98.6

Could you do the same for COc1ccc2oc(C(=O)NC(C)(C)CN3CCCCC3)cc2c1 , please? 93.8

Could you do the same for O=C(Cc1ccc(F)cc1)N1CCCC(c2nccnc2-c2cccc(C(F)(F)F)c2)C1 (centres unmarked) , please? 99.8

Could you do the same for CC1CN(C(=O)CCn2c(C(F)F)cc3cccnc32)CC(C)O1 (centres unmarked) , please? 95.3

Could you do the same for N/C(=N/O)c1ccc(-n2cncn2)nc1 , please? 104

Could you do the same for O=C(CSc1nnc(-c2ccccc2Br)o1)c1ccc(F)cc1 , please? 92.2

Could you do the same for COc1cc(C(=O)c2ccc(Cl)cc2)cc(Br)c1OCCN1CCOCC1 [CBK010131C] , please? 96.5

Could you do the same for CC(C)NC(=O)Cn1cnc2c1c(=O)n(C)c(=O)n2C , please? 86.9

Could you do the same for CC(=O)NCCN1CC[C@H]2CN(C(=O)c3cc(C)on3)CC[C@H]2CC1=O , please? 103

Could you do the same for COc1cccc(C(=O)Nc2nc3ccc(F)cc3s2)c1 , please? 86.9

Could you do the same for COc1cccc(-c2cnc(N(C)C)nc2C2CCCN2Cc2ccc3ncccc3c2)c1 (centres unmarked) , please? 85.5
